conditions: in DMSO, 313.15 K
measuredMetric: solubility (mole fraction)
Give only the figure.

For reference, reported solubility (mole fraction) for CCOc1ccc(C2NC(=O)NC=C2C(=O)c2cc(OC)c(OC)c(OC)c2)cc1 (stereo unspecified) stands at 0.00879

###

conditions: in isopropanol, 308.15 K
measuredMetric: solubility (mole fraction)
Give only the figure.

The measured solubility (mole fraction) associated with CCOc1ccc(C2NC(=O)NC=C2C(=O)c2cc(OC)c(OC)c(OC)c2)cc1 (stereo unspecified) reads 0.000772

###

details: in methanol, 303.15 K
measuredMetric: solubility (mole fraction)

Note to self: solubility (mole fraction) recorded for CCOc1ccc(C2NC(=O)NC=C2C(=O)c2cc(OC)c(OC)c(OC)c2)cc1 (stereo unspecified) was 0.000328

###

details: in water, 298.15 K
measuredMetric: solubility (mole fraction)
Answer with a bare number; do not write a unit.

Form field solubility (mole fraction), entry CCOc1ccc(C2NC(=O)NC=C2C(=O)c2cc(OC)c(OC)c(OC)c2)cc1 (stereo unspecified) : 7.87e-06

###

settings: in water, 308.15 K
measuredMetric: solubility (mole fraction)
Could you keep your reply to the number by itself?

Given item CCOc1ccc(C2NC(=O)NC=C2C(=O)c2cc(OC)c(OC)c(OC)c2)cc1 (stereo unspecified) , the value recorded as its solubility (mole fraction) is 1.51e-05

###

conditions: in DMSO, 308.15 K
measuredMetric: solubility (mole fraction)
// return just the number, without any unit appended

// solubility (mole fraction) value for CCOc1ccc(C2NC(=O)NC=C2C(=O)c2cc(OC)c(OC)c(OC)c2)cc1 (stereo unspecified) : 0.00754

###

conditions: in propylene glycol, 318.15 K
measuredMetric: solubility (mole fraction)
Response field accepts a number only; no unit should be typed.

Entry CCOc1ccc(C2NC(=O)NC=C2C(=O)c2cc(OC)c(OC)c(OC)c2)cc1 (stereo unspecified) — recorded solubility (mole fraction) = 0.00133

###

conditions: in PEG-400, 298.15 K
measuredMetric: solubility (mole fraction)

// solubility (mole fraction) value for CCOc1ccc(C2NC(=O)NC=C2C(=O)c2cc(OC)c(OC)c(OC)c2)cc1 (stereo unspecified) : 0.00521

###

conditions: in ethyl acetate, 298.15 K
measuredMetric: solubility (mole fraction)
Output: the number by itself.

Quick note, solubility (mole fraction) for CCOc1ccc(C2NC(=O)NC=C2C(=O)c2cc(OC)c(OC)c(OC)c2)cc1 (stereo unspecified) landed at 0.00143

###

conditions: in isopropanol, 313.15 K
measuredMetric: solubility (mole fraction)
No unit in the answer, only the number.

Per the record, CCOc1ccc(C2NC(=O)NC=C2C(=O)c2cc(OC)c(OC)c(OC)c2)cc1 (stereo unspecified) has solubility (mole fraction) of 0.000958

###

details: in water, 313.15 K
measuredMetric: solubility (mole fraction)
Give only the figure.

Entry under test: CCOc1ccc(C2NC(=O)NC=C2C(=O)c2cc(OC)c(OC)c(OC)c2)cc1 (stereo unspecified) . Its solubility (mole fraction) was 2.02e-05

###

conditions: in transcutol, 303.15 K
measuredMetric: solubility (mole fraction)
Number only, please.

Input CCOc1ccc(C2NC(=O)NC=C2C(=O)c2cc(OC)c(OC)c(OC)c2)cc1 (stereo unspecified) . Output solubility (mole fraction): 0.00367

###

conditions: in ethylene glycol, 313.15 K
measuredMetric: solubility (mole fraction)
Answer with a number only.

The compound CCOc1ccc(C2NC(=O)NC=C2C(=O)c2cc(OC)c(OC)c(OC)c2)cc1 (stereo unspecified) showed solubility (mole fraction) equal to 0.000866

Entry source: BigSolDB 2.1
